FYI, the data here is from patent US20260297060A1.

- Protocol description: Pharmacokinetics in female BALB/c nude mice bearing A375 xenografts, 1 day dosing (PK and PD study): plasma, tumor and brain concentrations, AUC
- Assay type: in vivo
- Test conditions: mouse, plasma, po, 3 mg/kg, 3 mg/kg p.o. QD × 1 day; 10 h; read-out: Mean Concentration in Plasma ± SEM
Quantity: concentration at 10 h (ng/mL)
Give the quantity in ng/mL, number only.

Query: Fill in: concentration at 10 h of CCN(C)S(=O)(=O)Nc1ccc(F)c(Oc2ccc3ncn(C4CC5(CCN(C6CC7(C6)CN(c6cc8c(cc6F)c(N6CCC(=O)NC6=O)nn8C)C7)CC5)C4)c(=O)c3c2)c1C#N (stereo not shown) is ___
Response: 307
